Tested on: K4 kissing-loop RNA reporter;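 also: bound reporter read as fluorescence of individual clusters on recovered sequencing chips by microscopy, with normalized cluster intensities fitted with a binding model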
TEST DETAILS: apparent KD of K4 kissing-loop reporter; higher = weaker reporter binding
CONDITION DETAILS: Eterna round: R107; input ligand: theophylline 20 uM

INPUT SEQUENCE	apparent KD of K4 kissing-loop reporter
UGUAUGUGAUUUGAUACCAGACCAGCUGGUGUUAGAUGAGUGAUGUUGAUCUAGGGUUGGGUCCCUUGGCAGCAAAUCGCAUACU [KL-SSTheoB22]	435 nM
AUGUUUUAUAAACUCAUGGUUUCGACAGAUACCAGCUUCGAGAGGAGCCCUUGGCAGCUGCAUGAGUGAUGUUCAUGUACGAAGA [KL-XTheoA7]	415 nM
GAAUUGACGAGUGAUGUUCGUCCACAAUACCGAGGACCGGUACGGCCGCCACUCGAGCAAUGUGAAUAGGGUCGCGUUUUGCAGU	352 nM
UGAUACCAGACGGCCGCCACUCCUGCAGUCAAAGACUGCAAAGGAAUAUUCGUCCAGUGAUGUUGGAGGACCGGGUCUGGUAUCU [TrypBX 11 #SwitchBubble #Palindromic #StaticStem]	701 nM
UGCACGGGCUCGGCCGCCACUCCCGCGGGUCGCAAGGUCCGCUACUGAGUGAUGUUCGGUUGGAGGAGGACCGGGAGCCCGUGCA [#2 Exclusion - Tryptophan B Attempt #27 (HarryS)]	112 nM
AAACCAAUCAGAGGAUAUUCUUUAUUCGACAUAAAUUUCUAUAAAUUGCAGUGAUGUUGCAAUAUAGGAGAAGGCUGAUUGACAA [Exclusion FMN B Gf 12]	229 nM
AUAUUUAUUUAGUCACUUUUCAUAUUAUGUCAGGAUAUCGUAUUUUCGAGAAGGGACUCAUGGUAGUGAUGUUACCUAUUUCUCA [#03 K4 FMN A Exclusion]	404 nM
UCCUAGGUUCGUCGGCGAAAGCCCUGCGAAGGAGCGUGCGAAAGCACAGGUAGGUCGCGCAGUGAUGUUGCACCUAGGUAAUAAA [#SwitchBubble 23 #K4Late]	150 nM
UGUAAGCGCGUAGAUACCAGCAGACGAGUGAUGUUCGAGAGAUUAAGGAAAAGAAAGUAAUGCCCUUGGCAGCUAAUCAUAAGCG [whbob_Ex_Theo_B_sa94]	301 nM
AUGGUAUUGCGAGGAUAUCCUUCCCACGUCGAAGUACCGUGCUUGAUGGAGUGAUGUUCGAUCAGAGGAGAAGGCGCGGUGUUAU [Same State FMN B GF22]	645 nM
UGAUACCAGACUGAUACCAGCCACAGAGUCAAGACUCUGAUAAAGGUAACCAGUGAUGUUGGCCCUUGGCAGCAGUCUGGUAUCU [TheoBX 16 #SwitchBubble #StaticStem]	149 nM
UCGAGUUGACGAAAAGUCAACUCGUGAGAUACCAGUGACGAAAGUCACCCUUGGCAGCUCACUGCCAGUGAUGUUGGUAUAUAGA [#05 K4 Theophylline A Same State]	217 nM
GGUGUUGUUUGUGCUGUUUUCCUCGUUCCUCGAGGACCGGUACGGCCGCCACUCGAGUGAUGUUUGGGUAGCGAUCCCUGUUAGU [Bdazzled - #8 Exc. Tryptophan A]	649 nM
GUGGUACAGGCGGCCGCCACUAGUGAUGUUAGUGUUAGAAGAUAUAGUAUAUAUCGGCAUUUGUUUAGGACCGGGCCUGGUGGAG [aqzacmullin]	189 nM
AGUAUGUAAUAUGGCAUAUUUAGAACUGAAGGAGCGCCGAAUAAGGCAGGUAGGUCGCGGAAAUAUGAGUGAUGUUCAUGUUUAA [KL-SSArg-A25]	113 nM
GGCCGCAAGGCGAGCGCUCCCACUCCGGAAGGAGCGCCCGCAAGGGCAGGUAGGUCGCCGGAGUGAUGUUCCGGUGGAGGGCUCG [#2 Exclusion - Arginine A Attempt #16 (Inspired by Omei)]	127 nM
CGGAGUGAUGUUCCGUUAAUUAAUUAUUUACGAGGACCGGUACGGCCGCCACUCGAUUUUGCUUUUAUUUAAUGUUUGGAAAUUU [JR_SSTryptoA_Sub006]	146 nM
UUUCGUUGAAGUGAUACCAGACUUGAAAGUGAUGUUUUCCAAUAAAUUAAAUUAUUAGCUGUCCCUUGGCAGCACAGUUUAUUUA [JR_ExcTheophyB_Sub006]	389 nM
AGAGAGGUGUUUUUUUGAUGUGAGUAAUGGCGAGGACCGGUACGGCCGCCACUCGGGUGAUGUUAGUGAUGUUGAUGUAGUGAUG [p'pmullin]	131 nM
UAUAUAUGAUGUGAUACCAGUGAAAAGCCAGUGAUGUUGGUAGAACUGGUAUAUAAAUAACACCCUUGGCAGCACAAUCACGUAU [whbob_Ex_Theo_B_sa96]	191 nM
CCGGUUCCAACGCUGACUGAAGAACAUGAUACCAGUCGAGGACUCGACCCUUGGCAGCAUUAUAGAGUGAUGUUCGCUUCAGAAA [theeternabot_sameState_KL_Theo_A_15]	367 nM
GGUAUCUAUACAGAUACCAGUCGUACAGCACCAUUACAGGUUAGUGAUGUUAACCUGUACGACCCUUGGCAGCUGUAUUAUAAUA [#15 K4 Theophylline B Exclusion]	91.4 nM
